Kindly supply the reported median fluorescence fold over isotype control values for the records listed here.
- testedSystem: SARS-CoV-2 full length spike protein, D614G mutant, expressed on CHO cells (SARS-CoV-2, UniProt P0DTC2 14-1273)
Give bare numbers, in fold over isotype.

Here are 2 binders together with their reported answers.
antibody 404 (antibody, V domains shown) VH: QVQLVESGGGVVQPGRSLRLSCAASGFTFSSYGMHWVRQAPGKGLEWVAVIWYDGSNKYYADSVKGRFTISRDNSKNTLYLQMNSLRAEDTAVYYCARLAVDISFDGSDGMDVWGQGTTVTVSS VL: SYELTQPPSVSVSPGQTARITCSGDALPKKYAYWYQQKSGQAPVLVIYEDSKRPSGIPERFSGSSSGTMATLTISGAQVEDEADYYCYSTDSSGKGVFGTGTKVTVL : 6.02
antibody 391 (antibody, V domains shown) VH: EVQLVESGGGLVQPGGSLRLSCAASGFTFSSYWMHWVRQAPGKGLVWVSRINSDGSSTSYADSVKGRFTISRDNAKNTLYLQMNSLRAEDTAVYYCALGPLDIVGSYYYYGMDVWGQGTTVTVSS VL: NFMLTQPHSVSESPGKTVTISCTGSSGSIASNYVQWYQQRPGSAPTTVIYEDNQRPSGVPDRFSGSIDSSSNSASLTISGLKTEDEADYYCQSYDSSNQDVVFGGGTKLTVL : 35.6

Now look at this one.
Please give the measured median fluorescence fold over isotype control for this binder: antibody 381 (antibody, V domains shown) VH: QVQLVESGGGVVQPGRSLRLSCAASGFTFSSYAMHWVRQAPGKGLEWVAVISYDGSNKYYADSVKGRFTISRDNSKNTLYLQMNSLRAEDTAVYYCARDRQYYDILTGYYLPTSEYYFDYWGQGTLVTVSS VL: DIQMTQSPSSVSASVGDRVTITCRASQGISSWLAWYQQKPGKAPKLLIYAASSLQSGVPSRFSGSGSGTDFTLTISSLQPEDFATYYCQQANSFPPTFGGGTKVEIK 67.9
